FYI, the data here is from ChEMBL document CHEMBL5512629.

- target under test: Ectonucleotide pyrophosphatase/phosphodiesterase family member 1 (Homo sapiens, UniProt P22413)
- Sequence (P22413 whole entry): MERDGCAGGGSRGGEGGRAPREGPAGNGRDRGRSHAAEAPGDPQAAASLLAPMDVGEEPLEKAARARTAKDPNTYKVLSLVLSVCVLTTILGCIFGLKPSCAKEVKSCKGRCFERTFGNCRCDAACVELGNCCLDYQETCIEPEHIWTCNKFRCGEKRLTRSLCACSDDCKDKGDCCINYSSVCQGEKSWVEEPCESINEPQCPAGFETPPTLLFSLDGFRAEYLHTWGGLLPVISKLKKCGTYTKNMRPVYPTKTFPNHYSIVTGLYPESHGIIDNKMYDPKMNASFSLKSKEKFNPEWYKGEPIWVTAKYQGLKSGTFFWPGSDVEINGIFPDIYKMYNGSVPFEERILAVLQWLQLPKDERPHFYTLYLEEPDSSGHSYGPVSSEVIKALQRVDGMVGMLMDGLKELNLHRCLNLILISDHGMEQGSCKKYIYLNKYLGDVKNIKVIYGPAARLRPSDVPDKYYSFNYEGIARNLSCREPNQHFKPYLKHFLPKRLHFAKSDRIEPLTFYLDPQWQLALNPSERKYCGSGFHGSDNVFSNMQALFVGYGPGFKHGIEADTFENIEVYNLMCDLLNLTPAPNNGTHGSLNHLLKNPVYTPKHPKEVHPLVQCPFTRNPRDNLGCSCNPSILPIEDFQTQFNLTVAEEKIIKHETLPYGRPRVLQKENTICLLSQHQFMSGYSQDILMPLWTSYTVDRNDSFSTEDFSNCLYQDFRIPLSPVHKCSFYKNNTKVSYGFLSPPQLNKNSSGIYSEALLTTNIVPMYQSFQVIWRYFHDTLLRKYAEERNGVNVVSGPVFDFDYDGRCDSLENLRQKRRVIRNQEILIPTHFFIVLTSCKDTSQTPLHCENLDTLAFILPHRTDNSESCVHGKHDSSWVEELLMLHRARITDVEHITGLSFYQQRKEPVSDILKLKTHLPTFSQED
- experiment: Inhibition of ENPP1 (unknown origin)
Assignment: determine reported IC50 for the given compounds.
Give the value, in units of µM, as a plain number.

IC50 lookup needed for Cc1nc2ncnn2c(N(C)C)c1Cc1cccc(N)c1 , thanks. 260

Tell me the measured IC50 of COc1ccc(NC(=O)CSc2nc3c(C)c(C#N)ncc3[nH]2)cc1O , please. 2.06

* * *

- target under test: Ectonucleotide pyrophosphatase/phosphodiesterase family member 1 (Homo sapiens, UniProt P22413)
- experiment: Binding affinity to ENPP1 (unknown origin) assessed as inhibition constant
recorded endpoint: pKi
Expect pKi as a plain number equal to -log10 of the molar concentration.

Bench note: what pKi did Nc1ncnc2c1ncn2[C@@H]1O[C@H](COP(=O)(O)CP(=O)(O)OP(O)(O)=S)[C@@H](O)[C@H]1O show? 4.70
